- subject of test: MARK4 catalytic domain (Homo sapiens, UniProt Q96L34)
- Construct: The recombinant MARK4 catalytic domain was used as kinase
- Sequence (Q96L34 59-310 limits assumed): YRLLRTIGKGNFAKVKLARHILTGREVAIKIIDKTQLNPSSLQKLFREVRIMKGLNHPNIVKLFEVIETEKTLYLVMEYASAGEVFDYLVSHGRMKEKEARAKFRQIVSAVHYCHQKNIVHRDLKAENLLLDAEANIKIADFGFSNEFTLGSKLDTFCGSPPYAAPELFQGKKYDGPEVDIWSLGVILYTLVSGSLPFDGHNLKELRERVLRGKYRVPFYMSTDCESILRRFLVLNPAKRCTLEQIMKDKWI
- assay: Kinase activity assay (ADP-Glo) using MARK4 as enzyme
- test conditions: MARK4 5 nM, 100 μM ATP, 5 μM MAP4, 30 min; duplicate, means ± SEM
Reported pIC50 values for a set of compounds
Schema: pIC50 number; meaning minus log10 of the concentration expressed in molar units.

Please review the following examples before continuing.
1. COc1cc(-c2cc3cc(Cl)ccc3oc2=O)cc(OC)c1OC [Compound 21] :: 4.59
2. COc1cccc(-c2cc3ccccc3oc2=O)c1 [Compound 30] :: 4.41
3. O=C(c1ccccc1)c1cc2ccccc2oc1=O [Compound 52] :: 4.57

(Q) What value of measured pIC50 is listed for O=C(NCCCNc1nc(Nc2cccc(NC(=O)N3CCCC3)c2)ncc1I)c1cccs1 [BX-795, reference compound] ?
(A) 5.30
